B1: Twister Ribozyme (parent)
chain: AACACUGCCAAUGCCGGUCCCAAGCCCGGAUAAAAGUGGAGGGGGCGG

Variants of: B1
protocol_notes: self-cleavage, relative activity (ratio to wild type); higher = more cleavage; co-transcriptional
Records here are stratified by self-cleavage; strata: low bracket: < 0.2; middle bracket: ≥ 0.2 and < 0.6; high bracket: ≥ 0.6

[
  {
    "variant_designation": "C19G G38C",
    "assigned_category": "low bracket"
  }
]

Please report the category associated with A11C U31A , nothing else.
middle bracket

Please report the category associated with A32C G48U , nothing else.
high bracket

Please report the category associated with A10C C14U , nothing else.
high bracket

Please report the category associated with C9U A30G , nothing else.
high bracket

Please report the category associated with G42A G44A , nothing else.
middle bracket

Please report the category associated with C15G U37C , nothing else.
low bracket

Please report the category associated with C20G A34G , nothing else.
low bracket

Please report the category associated with A11C G36U , nothing else.
high bracket

Please report the category associated with A10G U37G , nothing else.
high bracket

Please report the category associated with A23G G42C , nothing else.
low bracket

Please report the category associated with A4U C15A , nothing else.
low bracket

Please report the category associated with A30U A32G , nothing else.
high bracket

Please report the category associated with U18G C26U , nothing else.
low bracket

Please report the category associated with G41A C46A , nothing else.
middle bracket

Please report the category associated with C3G G29U , nothing else.
middle bracket

Please report the category associated with C21A A23G , nothing else.
low bracket

Please report the category associated with G16C C46G , nothing else.
middle bracket

Please report the category associated with G24U A32G , nothing else.
low bracket

Please report the category associated with A22U A30G , nothing else.
high bracket

Please report the category associated with A35G G42A , nothing else.
low bracket

All figures here come from the RNAGym collection of RNA variant scans (doi:10.7554/elife.80360).
